Where do the numbers come from? From PubChem BioAssay (NCI).

# System: HOP-62 NSCLC
# experimental details: NCI-60 one-dose screen, 48 h
# study conditions: 10 µM unless noted
Compounds without any hit were thinned out: in the full panel of roughly 83,000, 20% have a hit. The source made the active and inactive calls. Rule for the calls: active = growth percent below 10; inactive = the rest.
Your answer must be one of the following: YES for active, NO for inactive

Here's what some known entries look like.
{"molecule": "COc1cc(NCc2ccc3nc(N)nc(N)c3c2C)cc(OC)c1OC (tested in a mixture with another compound)", "category label": "NO"}
{"molecule": "CCCCC(C=O)(C=C=C(C)C)CC (stereo unspecified)", "category label": "NO"}
{"molecule": "CCCCCCCCCCCC[n+]1ccccc1 (tested in a mixture with another compound)", "category label": "YES"}
{"molecule": "Nc1ccc(Oc2ccccc2)c(Cl)c1", "category label": "NO"}
{"molecule": "CCOC(=O)c1[nH]c(C#N)c(C(=O)OCC)c1C", "category label": "NO"}

Query: For this molecule, state the assay outcome: O=C(Cc1ccccc1)C(F)(F)F
Reply: NO

Query: For this molecule, state the assay outcome: CC1CC(C)(C)OB(OC(C)CC(C)(C)OB2OC(C)CC(C)(C)O2)O1 (stereo unspecified)
Reply: NO

Query: For this molecule, state the assay outcome: N=C1C=C(N)C(=O)c2ccccc21
Reply: YES

Query: For this molecule, state the assay outcome: COc1cc(/C=C/C(=O)CC(=O)/C=C/c2ccc(O)c(OC)c2)ccc1O
Reply: NO

Query: For this molecule, state the assay outcome: O=C(Nc1cccc(C(F)(F)F)c1)Oc1ccc(Cl)c2cccnc12
Reply: NO

Query: For this molecule, state the assay outcome: CC(C)c1ccc(Nc2n[nH]c(=S)s2)cc1
Reply: NO

* * *

# Tested on: UO-31 renal
# experimental details: NCI-60 one-dose screen, 48 h (100 = growth as untreated, 0 = no growth, -100 = all killed)
# study conditions: 10 µM unless noted
Compounds without any hit were thinned out: in the full panel of roughly 83,000, 20% have a hit. Activity calls are given as the source filed them. The calls were made as follows: active = growth percent below 10; inactive = the rest.
property name: growth

Examples with their reported growth follow.
{"molecule": "CC(C)c1ccc(Nc2n[nH]c(=S)s2)cc1", "growth": "83.7% (inactive)"}
{"molecule": "CCOc1ccc2c(c1)/C(=C\\C=C\\C1CC(C)C3CC(OCC)CCC3N1CC)CC(C)N2CC (stereo unspecified)", "growth": "0.241% (active)"}
{"molecule": "Cn1ccc(=Nc2ccc(NC(=O)c3ccc(N=c4ccn(C)c5ccc([N+](=O)[O-])cc45)cc3)cc2)cc1", "growth": "82.6% (inactive)"}
{"molecule": "O=C1/C(=C/c2ccccc2)CCC/C1=C\\c1ccccc1", "growth": "88.1% (inactive)"}
{"molecule": "CC(C)=CCCC(C)C1=C(O)C(=O)C(C)=CC1=O (stereo unspecified)", "growth": "-98.3% (active)"}
{"molecule": "Cc1oc2c(C)c3oc(=O)cc(C)c3cc2c1CCl", "growth": "47.6% (inactive)"}
{"molecule": "O=C(/C(Cl)=N/O)c1ccc(-c2ccccc2)cc1", "growth": "57.9% (inactive)"}
{"molecule": "COC(=O)c1cc([N+](=O)[O-])cc([N+](=O)[O-])c1Cl", "growth": "79.1% (inactive)"}
{"molecule": "COC(=O)[C@]1(C)CCC[C@]2(C)c3ccc(C(C)C)cc3C(=O)[C@@H](Br)[C@@H]12", "growth": "69.5% (inactive)"}
{"molecule": "CCOc1ccc(C(CN2CCOCC2)C(C)=O)cc1OC (stereo unspecified)", "growth": "75.4% (inactive)"}

Switching to the query record.
Query: Notebook: pull reported growth for UO-31 renal, entry CCCCOS(=O)(=O)c1ccccc1
Reply: 99.8% (inactive)
